From: patent US8383581B2

# TESTED_TARGET: T1, rat PTH-1R (rat PTHR endogenously expressed on UMR-106 rat osteosarcoma cells) (rat, UniProt P25961 27-591)
# T1 sequence (looked up): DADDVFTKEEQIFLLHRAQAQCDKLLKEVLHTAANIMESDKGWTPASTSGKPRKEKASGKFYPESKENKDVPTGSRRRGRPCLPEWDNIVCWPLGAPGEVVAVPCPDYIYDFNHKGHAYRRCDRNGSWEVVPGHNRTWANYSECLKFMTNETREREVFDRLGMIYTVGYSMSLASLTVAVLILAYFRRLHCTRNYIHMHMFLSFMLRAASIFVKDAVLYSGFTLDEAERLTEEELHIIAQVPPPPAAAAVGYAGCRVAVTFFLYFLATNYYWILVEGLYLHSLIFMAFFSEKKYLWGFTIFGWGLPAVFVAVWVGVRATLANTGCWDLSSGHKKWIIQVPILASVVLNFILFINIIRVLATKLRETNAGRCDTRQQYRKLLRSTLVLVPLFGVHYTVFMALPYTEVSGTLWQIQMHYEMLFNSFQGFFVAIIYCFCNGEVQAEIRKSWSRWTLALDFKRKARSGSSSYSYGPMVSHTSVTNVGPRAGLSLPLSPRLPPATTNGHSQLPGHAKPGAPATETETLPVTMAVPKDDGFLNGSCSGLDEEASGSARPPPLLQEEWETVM
# ASSAY_COMMENT: cell-based or functional assay
Where no end group is shown, it is not given here. [ ]: non-standard residue; d: D form. Bip(2'-Et-4'-OMe) = CCc1cc(OC)ccc1-c1ccc(C[C@H](N)C(=O)O)cc1; Arg(NO2) = N=C(NCCC[C@H](N)C(=O)O)N[N+](=O)[O-]; αMePhe(2,6-F2) = C[C@](N)(Cc1c(F)cccc1F)C(=O)O; αMePhe(2-F) = C[C@](N)(Cc1ccccc1F)C(=O)O; hhPhe = N[C@@H](CCCc1ccccc1)C(=O)O; hArg = N=C(N)NCCCC[C@H](N)C(=O)O; αMeF = C[C@](N)(Cc1ccccc1)C(=O)O; Cit = NC(=O)NCCC[C@H](N)C(=O)O; Ac6c = NC1(C(=O)O)CCCCC1; Nle = CCCC[C@H](N)C(=O)O; Ac5c = NC1(C(=O)O)CCCC1; Ac3c = NC1(C(=O)O)CC1; Aib = CC(C)(N)C(=O)O
MEASURED_QUANTITY: cAMP released with respect to control, 10 nM peptide, UMR-106 cells

Q. Requested read-out: cAMP released with respect to control, 10 nM peptide, UMR-106 cells. Entry: [Ac5c]V[Ac5c]EIQ[αMePhe(2,6-F2)][Nle]HQ[hArg][Aib][αMePhe(2,6-F2)][αMePhe(2,6-F2)] [Seq. ID. 238]
A. 91 percent of control

Q. Given the entry [Ac5c]V[Aib]EIQ[αMePhe(2-F)][Nle]HQ[Cit][Aib][Aib][αMePhe(2,6-F2)] [Seq. ID. 372] , report its measured cAMP released with respect to control, 10 nM peptide, UMR-106 cells.
A. 71 percent of control

Q. I have this binder here, [Aib]V[Ac6c]EIQL[Nle]HQ[hArg][Aib]K[αMeF] [Seq. ID. 23] , and I need its recorded cAMP released with respect to control, 10 nM peptide, UMR-106 cells.
A. 41 percent of control

Q. // query cAMP released with respect to control, 10 nM peptide, UMR-106 cells value for entry [Aib]V[Aib]EIQLMHQ[hArg][Aib]K[αMeF] [Seq. ID. 9]
A. 41 percent of control

Q. cAMP released with respect to control, 10 nM peptide, UMR-106 cells for [Ac3c]V[Aib]EIQ[αMePhe(2,6-F2)][Nle]HQ[hArg]A[Arg(NO2)][Bip(2'-Et-4'-OMe)][hhPhe] [Seq. ID. 694] ?
A. 64 percent of control
